- Test system: PPARg homodimer (NR concentration 180 nM)
- test.description: PBM binding z-score (relative to random genomic background probes); higher = stronger binding; sequences stand for … in GC…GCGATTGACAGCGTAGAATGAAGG
outcome.measure: PBM binding z-score
// no unit, no text: just the number

Previously resolved entries follow.
INSERT INTO results (record_sequence, outcome_measure, observed_result) VALUES
  ('ATATGTAGGTTAGGGTCATTTAGAAAGTAGGGAA', 'PBM binding z-score', 3.47),
  ('CGAACTTGGTCACCAGGACAGTGAAGAGGTTGGA', 'PBM binding z-score', 0.157),
  ('CTATGTAGGTTAAGTGGGTCATTCAGTTTGAAAG', 'PBM binding z-score', 1.59);

Q: Query PBM binding z-score on PPARg homodimer (NR concentration 180 nM) for CCGAGTAGGTTACGAGGGGGCCTTCAGTGCGAAT
Result: 1.59

Q: Cool, now ATGTGTAGGTTAGGGTCATTCAGAAAGTAGGGAA
Result: 3.73

###

Some sequences, each annotated with its measured PBM binding z-score.
- Test system: PPARg homodimer (NR concentration 180 nM)
- test.description: PBM binding z-score (relative to random genomic background probes); higher = stronger binding; sequences stand for … in GC…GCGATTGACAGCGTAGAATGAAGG
// no unit, no text: just the number

Previously resolved entries follow.
INSERT INTO measurements (record_sequence, subject_of_test, observed_result) VALUES
  ('ATATGTAGGATATCGGGTCATTCAGTTTGCGCAT', 'PPARg homodimer (NR concentration 180 nM)', 1.07),
  ('CCGAGTAGGTTACGAGCGGGCATTCAGTGCGAAT', 'PPARg homodimer (NR concentration 180 nM)', 0.117),
  ('TCGAGTAGGTTACGGGGGCACTCAGGGATGAAGA', 'PPARg homodimer (NR concentration 180 nM)', 2.56),
  ('CTATGTAGGTTAAGGGTGTCATTCAGTTTGAAAG', 'PPARg homodimer (NR concentration 180 nM)', 1.32);

Q: Look at this sequence and give its reported PBM binding z-score. ATCTCTAGGTGAAAGTTCAGTGAATCCCGAGGAT
Result: 1.52

###

- Test system: LXRb:RXRa (NR concentration 270 nM, RXRa partner concentration 90 nM)
- test.description: PBM binding z-score (relative to random genomic background probes); higher = stronger binding; sequences stand for … in GC…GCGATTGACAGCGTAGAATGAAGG
Some sequences, each annotated with its measured PBM binding z-score.
// no unit, no text: just the number

INSERT INTO assay_data (record_sequence, outcome_measure, observed_result) VALUES
  ('ATATGTAGGGTAGGGTCATTCAGAAAGTAGGGAA', 'PBM binding z-score', 5.19),
  ('CGAACTAGGTCCAAGGACAGTGAAAGGCGACGTA', 'PBM binding z-score', -0.931),
  ('GCTGCTCGGTCAACTGATGGTCAGCTAAAGCTCG', 'PBM binding z-score', -0.248),
  ('TCTGCTAGGTCAGGTGGTCAGCTAACGAGCTGCC', 'PBM binding z-score', 0.66),
  ('CCTACTGGGCGACGAAAGGTCATTGATTCAGTGA', 'PBM binding z-score', 3.94),
  ('CTATGTAGGTTAAGGGGGTTATTCAGTTTGAAAG', 'PBM binding z-score', 5.09),
  ('CTCGAAAGGTCGTGCTCAGGTGAGTATGCCAAAC', 'PBM binding z-score', 3.2),
  ('ATATGTAAGTTAGGGTCATTCAGAAAGTAGGGAA', 'PBM binding z-score', 4.13),
  ('CCTTACGGGTCACTGACAGGTCATAGCATTTGGA', 'PBM binding z-score', 4.51),
  ('CGAACTGGGTCAAAGGACAGTGAAAGGCGACGTA', 'PBM binding z-score', 1.37);

Q: Look at this sequence and give its reported PBM binding z-score. CGTCCAAGGTCAGATAGGTCAGTGAATGCCGAGT
Result: 3.45

Q: Cool, now ACCAGCAGGCCAAGGGTCACTCAAGATTAGTCCG
Result: 2.55

###

- System: LXRb:RXRa (NR concentration 270 nM, RXRa partner concentration 90 nM)
- test.description: PBM binding z-score (relative to random genomic background probes); higher = stronger binding; sequences stand for … in GC…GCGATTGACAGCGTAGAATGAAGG
Use 5 as the dividing line for PBM binding z-score, with the line itself on the 1 (yes) side and lower values as 0 (no).

Reference set (2 entries):
INSERT INTO results (record_sequence, class_label) VALUES
  ('TCAAGTAGGTTACGGGGGCATTCAGGGATGAAGA', '1 (yes)'),
  ('ATATGTAGCTTAGGGTCATTCAGAAAGTAGGGAA', '0 (no)');

Q: Check this sequence for PBM binding z-score at or above 5: ATCGAAAGGTCGTGACGTGAGTATACAGAAAGGC
Result: 0 (no)

Q: Cool, now GCTGCAAGGTCAACTGATGGTCAGCTAAAGCTCG
Result: 0 (no)

Q: Cool, now CAAACTAGGTCACGAGGTCAAAGTCCGCTTCCCG
Result: 1 (yes)

Q: Cool, now CCTTACGGTTCACTGACAGGTTATAGCATTTGGA
Result: 0 (no)

Q: Cool, now CAAACTAGGTCACCGTAAGGTCAAAGTCCGCATG
Result: 1 (yes)

###

- System: PPARg DBDmut IVT, anti-PPARg (DBD mutation: PPARg1 K132A/R137A, NR concentration 270 nM)
- test.description: PBM binding z-score (relative to random genomic background probes); higher = stronger binding; sequences stand for … in GC…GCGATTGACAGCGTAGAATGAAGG
outcome.measure: PBM binding z-score
// no unit, no text: just the number

INSERT INTO measurements (record_sequence, outcome_measure, observed_result) VALUES
  ('TTACCAAGGTTAAAGGTCGTTGATGCACGCCTTG', 'PBM binding z-score', 0.292),
  ('TCTAGCAGGCCATAGGGTCACTCAAGAGGTACGG', 'PBM binding z-score', -0.48);

Let us examine a further case.
Q: Look at this sequence and give its reported PBM binding z-score. ATCGAAAGGTCGTGAGGTGAGTTTACAGAAAGGC
Result: 0.81

###

- System: RXRa homodimer (NR concentration 180 nM)
- test.description: PBM binding z-score (relative to random genomic background probes); higher = stronger binding; sequences stand for … in GC…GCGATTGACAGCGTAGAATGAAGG
outcome.measure: PBM binding z-score
// no unit, no text: just the number

Previously resolved entries follow.
INSERT INTO measurements (record_sequence, observed_result) VALUES
  ('TCGAGTAGGTTACGGGGGCATACAGGGATGAAGA', 3.07),
  ('CGAACTAGGTCAAATGACAGTGAAAGGCGACGTA', 3.11),
  ('CGCACTAGGTCATTGACAGGACAGTGAATAGTAA', 2.57),
  ('CGTCCAAGGTAAATGCTAGGTCAGTGAAAGCATT', 0.316),
  ('CGTCTAAGGTCAAAGGTCAGTGAAGAGATGACGG', 10.7),
  ('TCGAGTAGGTTACGGGGGCATTCATGGATGAAGA', 2.93),
  ('ATTTGTAGGTTAGGGTCATTCAGAAAGTAGGGAA', 5.6),
  ('CGTCCAAGGTCATGGGAGGTCAGTGAAGACAGAT', 7.56);

Q: Look at this sequence and give its reported PBM binding z-score. CAAAGTAGGTCACGAAAGGTCAAAGTCGAATGAC
Result: 8.62

Q: Cool, now TCGAGTAGGTTACGGGGGCATTCCGGGATGAAGA
Result: 2.87

Q: Cool, now CGAACTACGTCAAAGGACAGTGAAAGGCGACGTA
Result: 0.202

Q: Cool, now CGAACTAGGGCACCAGGACAGTGAAGAGGTTGGA
Result: 0.278

###

- Test system: PPARg:RXRa (NR concentration 180 nM, RXRa partner concentration 90 nM)
- test.description: PBM binding z-score (relative to random genomic background probes); higher = stronger binding; sequences stand for … in GC…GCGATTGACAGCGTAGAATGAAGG
Output: class label from PBM binding z-score. Mapping: group 1: < 2; group 2: ≥ 2 and < 8; group 3: ≥ 8

Reference set (6 entries):
INSERT INTO assay_data (record_sequence, class_label) VALUES
  ('ACAGACAGGTGAGTGAAGGTCACTCAGCTGGACG', 'group 1'),
  ('CCGAGTAGGTTACGAGGGGGGATTCAGTGCGAAT', 'group 2'),
  ('TCTAGTTGGTTACGGAGGTCACACACGACGGGTA', 'group 2'),
  ('CCGAGTAGGTTTCGAGGGGGCATTCAGTGCGAAT', 'group 1'),
  ('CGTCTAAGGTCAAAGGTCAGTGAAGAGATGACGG', 'group 3'),
  ('TCGAGTAGGTGACGGGGGCATTCAGGGATGAAGA', 'group 2');

Q: Which class does CCGAGTAGGTTAAGAGGGGGCATTCAGTGCGAAT fall in?
Result: group 1

Q: Cool, now ACTAATTGGTCAGCTGAGGTCACACACAATTCGG
Result: group 2

Q: Cool, now CTATCTAGGTTAAGGGGGTCATTCAGTTTGAAAG
Result: group 3

Q: Cool, now CCTTCTGGGCCATTCAGAGGTCATTGATCATATG
Result: group 1
